Data provenance is the supplement of paper PMC9170038.

Tested on: MS2 coat protein
Experiment notes: apparent KD of MS2 coat protein; designed switch direction (-1 OFF switch, 1 ON switch): -1; higher = weaker reporter binding
Settings: input ligand: none
Measured attribute: apparent KD of MS2 coat protein (nM)
All answers are understood in nM, so give the number only.

Examples with answers:
Sequence chain	Tgt	Measured attribute	Result value
CUCGUGUUAGGAUAUCUAUCGCGGAUGACAGAGAGGACGUUGGAGAAGGAACAUGAGGAUCACCCAUGUUCUGG [Eternabot (L2) Solution 86] (Eterna round: R97, puzzle: Exclusion 4)	MS2 coat protein	apparent KD of MS2 coat protein	14.5
UUUUUCUCAGGAUAUACAUGAGGAUCACCCAUGUAUAUUAAGAAUAAUACAUGGGAAUGUAGAAGGGAGCUCAU [Omei Ex3 Pseudoloop 10] (Eterna round: R97, puzzle: Exclusion 3)	MS2 coat protein	apparent KD of MS2 coat protein	129
UUUCCACAUGAGGAUCACCCAUGUCAGGAUAUUAUAGUUGGCCGAAAGGCGUCAGUGGUAAGAAGGGACGUUGA [Eternabot (L2) Solution 46] (Eterna round: R97, puzzle: Exclusion 1)	MS2 coat protein	apparent KD of MS2 coat protein	15.8

Task: // returns reported apparent KD of MS2 coat protein for input AUAAUGUAAGGAUAUCAGUCGUACAGCCUCGGCUGUACGACUGAGAAGGUACAUGAGGAUCACCCAUGUGGUCA [E4/9-A2] (Eterna round: R97, puzzle: Exclusion 4)
Result: 1040

Task: // returns reported apparent KD of MS2 coat protein for input ACAGUUCUGCAAGGAUAUCGUCCUAGUUUGUUUCGAGAAGGUGCUUUUGUUUUUUCCUUUUGUUUACAUGAGGAUCACCCAUGU [JR_ExcNG1_Sub051] (Eterna round: R96, puzzle: Exclusion NG 1)
Result: 18.9

Task: // returns reported apparent KD of MS2 coat protein for input UUAUGAGUAGGAUAUGAGCCAAAAUACAUGAGGAUCACCCAUGUCGGGUUCAUGGAGGGCUCAGAAGGAUUCAAUA [Exclusion 5 - Laarte Mod] (Eterna round: R97, puzzle: Exclusion 5)
Result: 17

Task: // returns reported apparent KD of MS2 coat protein for input AUAAUGUCAGGAUAUCAGACGUACAGCUGCGGCUGUACGUCUGAGAAGGGACAUGAGGAUCACCCAUGUGAUUA [E4/3-A3] (Eterna round: R97, puzzle: Exclusion 4)
Result: 1460

Task: // returns reported apparent KD of MS2 coat protein for input AAGAAAGGUGACAUGGGUGACAUGAGGAUCACCCAUGUUACAAGCUUGUUGCUCGUCUUAUAAUUAACCCAUGUCAU [LRO Sensor-off var1-19 mod of Stov1-13-A1 by Brourd] (Eterna round: R97, puzzle: Sensor, turn-off variant 1)
Result: 64.6

Task: // returns reported apparent KD of MS2 coat protein for input GUGACACAUGAGGAUCACCCAUGUGAGGAUAUAUCCGACUAUGAAAGGGUGUAGCAGGAUAGAAGGUACUGGCG [Eternabot (L2) Solution 54] (Eterna round: R97, puzzle: Exclusion 1)
Result: 104

###

Test system: MS2 coat protein
Experiment notes: apparent KD of MS2 coat protein; designed switch direction (-1 OFF switch, 1 ON switch): 1; higher = weaker reporter binding
Settings: Eterna round: R95; input ligand: none
Label scheme for apparent KD of MS2 coat protein: lower than 0.3 µM is f, 0.3 µM and above is t.

As a guide, the following entries are already answered.
Sequence chain	Tgt	Label class
AAGUAACAUGAGGAUCACCCAUGUGAGGUGAGCGUAGGAUAUCGAGGAGGAAGGGUGGAGCGAGAAGGACGAGAAG [JR_SS1_Sub097] (puzzle: Same State 1)	MS2 coat protein	t
UUGCGCUGUCGAGAGGAUAUGCGGUGAUGGACAUGAGGAUCACCCAUGUUAGCGAUAGCAUUACGGUAGAAGGCUCUACAGCUGC [salish99_ss2_r3_094] (puzzle: Same State 2)	MS2 coat protein	f

Task: Please indicate if the recorded apparent KD of MS2 coat protein for AGUCCAGCCUGAGCUGGACAAAAGCAUGUACAUGAGGAUCACCCAUGUUCAUGUACAAGCUUUUUGCUCGUCUUACA [salish99_208a_r3_076] (puzzle: Sensor for hsa-mir-208a) meets or exceeds 0.3 µM.
Result: t

Task: Please indicate if the recorded apparent KD of MS2 coat protein for UGUAAACAUGAGGAUCACCCAUGUUUUUUCAUGGGAGGAUAUCUGAGUUAAGUAUAUUAAGGAGAAGGCCUAUUGU [× ×•×ª×• ×ž×“×™× ×” × ×—×ª-02] (puzzle: Same State 1) meets or exceeds 0.3 µM.
Result: f

Task: Please indicate if the recorded apparent KD of MS2 coat protein for UUUAGUUGCGGGCAGGAUAUGUAUUAAAAUACAUGAGGAUCACCCAUGUGAGGUCAUAACGACCUACAGAAGGGCCAAUCGCGAC [Laonerce - 15] (puzzle: Same State 2) meets or exceeds 0.3 µM.
Result: f

Task: Please indicate if the recorded apparent KD of MS2 coat protein for CUGCUACAUGAGGAUCACCCAUGUUGGAGUGAUGCAGGAUAUGUGGGACCAGAAGAUGAAACAGAAGGGCAAGGAG [JR_SS!_Sub006] (puzzle: Same State 1) meets or exceeds 0.3 µM.
Result: f

Task: Please indicate if the recorded apparent KD of MS2 coat protein for UCUUGGUUUUUGCUCGUUUUUUGUGUUGAACAUGAGGAUCACCCAUGUAUUGUACAAUCCAGUUUAAUAAUGGUCCA [Mod of one of JR's submissions 2] (puzzle: Sensor for hsa-mir-208a) meets or exceeds 0.3 µM.
Result: f

Task: Please indicate if the recorded apparent KD of MS2 coat protein for UAGAGAGGAAGCGAGGAUAUCGUGUUAGGUACAUGAGGAUCACCCAUGUUGUAGGUAGAGGUAGGCGAGAAGGCGCAGGAGAGGA [JR_SS2_Sub092] (puzzle: Same State 2) meets or exceeds 0.3 µM.
Result: f

Task: Please indicate if the recorded apparent KD of MS2 coat protein for UAGUUACUAUCUCAGGAUAUCAUGUCAAAGACAUGAGGAUCACCCAUGUACCAGGAAACUGGUUAUGAGAAGGGAGAUAGUAACA [Mat - Same State 2 - Mod - D56] (puzzle: Same State 2) meets or exceeds 0.3 µM.
Result: f

###

Tested on: K4 kissing-loop RNA reporter;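 note: bound reporter read as fluorescence of individual clusters on recovered sequencing chips by microscopy, with normalized cluster intensities fitted with a binding model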
Experiment notes: apparent KD of K4 kissing-loop reporter; higher = weaker reporter binding
Settings: Eterna round: R107; input ligand: FMN 200 uM
# apparent KD of K4 kissing-loop reporter values compiled below
All answers are understood in nM, so give the number only.

Sequence chain	Tgt	apparent KD of K4 kissing-loop reporter (nM)
UUUCCAGAUAAGUGGGAACACUCCAUAACAGAGGAUAUCAGAGCGCUGAGAAGGCUGUUUAUCAGUGAUGUUGAUAGUGUGGAGU [FMN A SS t2a]	K4 kissing-loop RNA reporter	171

Task: Query apparent KD of K4 kissing-loop reporter on K4 kissing-loop RNA reporter for UGAUACCAGACGGCCGCCACUACACCAGUCAAAGACUGGAUGUGAAAUUCGACCAGUGAUGUUGGUAGGACCGGGUCUGGUAUCU [TrypBX 8 #SwitchBubble #StaticStem]
Result: 383

Task: Query apparent KD of K4 kissing-loop reporter on K4 kissing-loop RNA reporter for GCUAUAGUGUUAGAUACCAGUAUCCUGCAAAGCCAUCAAAUGCAGUGAUGUUGCAUAAACUACCCUUGGCAGCUAAUUGGGCUCU [theeternabot_exclusion_KL_Theo_B_49]
Result: 226

Task: Query apparent KD of K4 kissing-loop reporter on K4 kissing-loop RNA reporter for GGAUAGGAUAGAGGAUAUGGCUUACGCAGAAAUAACUUGUUGUGUUUAUCCAUAGGGAGUGAUGUUCCAGAAGGCUGUCCUAUCG [MatMod 18 - Jieux - Exclusion - FMN B]
Result: 732

Task: Query apparent KD of K4 kissing-loop reporter on K4 kissing-loop RNA reporter for UGUAAUUCGGCGGCCGCCACUGACCAUAGCCUUCGAUGGCCAGUGAUGUUGGCCUCUGGCUCUAACAGGACCGGGCCGAAUUGCG [Sotetiqu]
Result: 243

Task: Query apparent KD of K4 kissing-loop reporter on K4 kissing-loop RNA reporter for AGUGUUUGGUUAGAUACCAGCCGUCUGUGGAUAAUCCUCAGACCGCCAGUGAUGUUGGCAGGCCCUUGGCAGCUAACAGGACAGA [Ersoed]
Result: 198

###

Test system: MS2 coat protein
Experiment notes: apparent KD of MS2 coat protein, switch ON state; designed switch direction (-1 OFF switch, 1 ON switch): 1; higher = weaker reporter binding
Settings: FMN input: 0 or 200 uM; Eterna round: R93 (includes R88 designs)
# apparent KD of MS2 coat protein values compiled below
All answers are understood in nM, so give the number only.

Examples with answers:
Sequence chain	Tgt	Value unit	apparent KD of MS2 coat protein
AACUACAUUAUGAAGGAUAUCCGCGUCUAGACAUGAGGAUCACCCAUGUAUACUUGGAUCAUGCAGGAGAAGGUCAAGGGUGAUU [JR_SS002_Sub1209]	MS2 coat protein	nM	178
AUAUGAGCUAUGGAGGAUAUCCAUAAUAAAACAUGAGGAUCACCCAUGUAAGAAAGAAAAGAAUGGGAGAAGGCCAUAGCUCAAU [SS 2 M44]	MS2 coat protein	nM	11.6
UAAUAAUAAACCAAGGAUAUGGAGUUUCCAACAUGAGGAUCACCCAUGUUUAGCAUGAAAUCGAACCAGAAGGUGGAGCCAAAUA [JR_SS002_Sub1004]	MS2 coat protein	nM	10.8

Task: Query apparent KD of MS2 coat protein on MS2 coat protein for AGAAAACAUGAGGAUCACCCAUGUGAUAACAUGGGAGGAUAUACGAGGACGAGAGUCAAGGUAGAAGGCCUAAAGA [Garnet 72]
Result: 111

Task: Query apparent KD of MS2 coat protein on MS2 coat protein for AUAAAAUAAAGGGAGGAUAUCUAUAAUAAAACAUGAGGAUCACCCAUGUUAAAAAGAAGAUCAUGGGAGAAGGCCUAAAAUAAAU [SS2 M 30]
Result: 37.9

Task: Query apparent KD of MS2 coat protein on MS2 coat protein for AGCCAACAUGAGGAUCACCCAUGUCAAACAAGUCAAGGAUAUGGGCCUCUAAAAGGAGUACCAGAAGGUGAGAAAU [Vequatge]
Result: 123
